Kindly state residual activity for each of the entries shown.
tested-target: NEK6 (human)
assay-overview: radiometric filter-binding kinase assay
test-conditions: compound 10.0 µM
Give your result in % as a bare value.

Problem: Please tell me: residual activity of O=C(NOCC(O)CO)c1ccc(F)c(F)c1Nc1ccc(I)cc1Cl (stereo not given) , system NEK6 (human)?
Solution: 103

Problem: Please tell me: residual activity of `CCCC(CCC)C(=O)O` , system NEK6 (human)?
Solution: 100

Problem: Please tell me: residual activity of `CCc1cncnc1N1CCN(Cc2nc3cc(C(F)(F)F)ccc3[nH]2)CC1` , system NEK6 (human)?
Solution: 80

Problem: Please tell me: residual activity of `C[C@H]1CCCC(=O)CCC/C=C/c2cc(O)cc(O)c2C(=O)O1` , system NEK6 (human)?
Solution: 91

Problem: Please tell me: residual activity of `COc1cc(C(=O)N2CCOCC2)c(F)cc1Nc1ncc(C(F)(F)F)c(NC2CC2)n1` , system NEK6 (human)?
Solution: 90

----------
tested-target: MAP3K1 (human)
assay-overview: radiometric filter-binding kinase assay
test-conditions: compound 10.0 µM
parameter-measured: residual activity (%)
Give your result in % as a bare value.

Problem: Please tell me: residual activity of `C=CC(=O)N1CCC[C@@H](n2nc(-c3ccc(Oc4ccccc4)cc3)c3c(N)ncnc32)C1` , system MAP3K1 (human)?
Solution: 56

Problem: Please tell me: residual activity of `Oc1ccc(/C=C/c2cc(O)cc(O)c2)cc1` , system MAP3K1 (human)?
Solution: 90

Problem: Please tell me: residual activity of `CCCCCc1ccc(/C=C/[C@H](O)[C@@H](CO)NC)cc1` , system MAP3K1 (human)?
Solution: 89

Problem: Please tell me: residual activity of `FC(F)(F)c1ccc(-c2ccc(Oc3cncc4sc(-c5nn[nH]n5)cc34)cc2)cc1` , system MAP3K1 (human)?
Solution: 93

Problem: Please tell me: residual activity of Nc1cccc2c1CN(C1CCC(=O)NC1=O)C2=O (stereo unspecified) , system MAP3K1 (human)?
Solution: 97

Problem: Please tell me: residual activity of `O=c1c(O)c(-c2ccc(O)c(O)c2)oc2cc(O)c(O)c(O)c12` , system MAP3K1 (human)?
Solution: 74

----------
tested-target: TBK1 (human) (UniProt Q9UHD2)
Sequence (Q9UHD2 whole entry, looked up): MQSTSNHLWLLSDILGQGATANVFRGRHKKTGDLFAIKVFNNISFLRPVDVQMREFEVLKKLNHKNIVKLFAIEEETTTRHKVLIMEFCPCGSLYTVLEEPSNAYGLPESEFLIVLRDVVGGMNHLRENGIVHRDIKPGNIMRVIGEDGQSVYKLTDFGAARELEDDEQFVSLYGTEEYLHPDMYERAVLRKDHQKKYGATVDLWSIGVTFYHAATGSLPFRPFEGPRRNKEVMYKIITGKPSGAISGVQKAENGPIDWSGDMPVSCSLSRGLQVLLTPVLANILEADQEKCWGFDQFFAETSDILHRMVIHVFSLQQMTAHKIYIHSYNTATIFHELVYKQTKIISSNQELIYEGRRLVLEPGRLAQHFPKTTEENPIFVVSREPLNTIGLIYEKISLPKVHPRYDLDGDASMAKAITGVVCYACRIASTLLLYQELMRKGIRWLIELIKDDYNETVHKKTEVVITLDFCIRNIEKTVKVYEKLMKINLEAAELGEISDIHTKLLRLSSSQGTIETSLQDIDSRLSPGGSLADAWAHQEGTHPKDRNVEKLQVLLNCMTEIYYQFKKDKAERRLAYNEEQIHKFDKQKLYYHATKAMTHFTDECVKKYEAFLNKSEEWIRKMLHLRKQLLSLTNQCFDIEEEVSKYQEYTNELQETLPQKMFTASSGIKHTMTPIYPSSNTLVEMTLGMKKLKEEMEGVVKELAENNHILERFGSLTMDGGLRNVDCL
assay-overview: radiometric filter-binding kinase assay
test-conditions: compound 10.0 µM
parameter-measured: residual activity (%)
Give your result in % as a bare value.

Problem: Please tell me: residual activity of `CN1C(=O)[C@@H](Cc2c[nH]c3ccccc23)NC1=S` , system TBK1 (human) (UniProt Q9UHD2)?
Solution: 96

Problem: Please tell me: residual activity of `NC1(c2ccc(-c3nc4ccn5c(=O)[nH]nc5c4cc3-c3ccccc3)cc2)CCC1` , system TBK1 (human) (UniProt Q9UHD2)?
Solution: 89

Problem: Please tell me: residual activity of `CNc1nc(-c2ccc3c(N)n[nH]c3c2)cc(N2C[C@@H](C(=O)NC3CCCCC3)CC[C@H]2C)n1` , system TBK1 (human) (UniProt Q9UHD2)?
Solution: 81

----------
Test system: RPS6KB1 (human), P23443 [T412E]
Sequence (P23443 whole entry T412E, looked up): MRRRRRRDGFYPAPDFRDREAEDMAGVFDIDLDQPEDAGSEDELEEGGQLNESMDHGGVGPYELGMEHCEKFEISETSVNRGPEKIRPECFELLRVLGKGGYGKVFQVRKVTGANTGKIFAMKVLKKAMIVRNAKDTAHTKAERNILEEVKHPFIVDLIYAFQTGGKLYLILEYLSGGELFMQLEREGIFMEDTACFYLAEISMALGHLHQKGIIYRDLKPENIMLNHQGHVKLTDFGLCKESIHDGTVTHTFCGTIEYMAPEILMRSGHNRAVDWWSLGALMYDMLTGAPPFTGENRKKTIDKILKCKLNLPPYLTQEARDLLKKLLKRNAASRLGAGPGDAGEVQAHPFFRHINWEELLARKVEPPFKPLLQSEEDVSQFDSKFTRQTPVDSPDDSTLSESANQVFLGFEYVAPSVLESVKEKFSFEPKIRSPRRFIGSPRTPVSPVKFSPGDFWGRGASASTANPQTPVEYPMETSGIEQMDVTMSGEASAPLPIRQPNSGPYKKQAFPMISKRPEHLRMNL
assay-overview: radiometric filter-binding kinase assay
test-conditions: compound 10.0 µM
parameter-measured: residual activity (%)
Give your result in % as a bare value.

Problem: // lookup residual activity for `O=C(N[C@@H](COc1ccc2[nH]c(=O)[nH]c2c1)c1ccccc1)c1cccn(Cc2ccc(F)c(F)c2)c1=O`
Solution: 98

Problem: // lookup residual activity for `CCc1cncnc1N1CCN(Cc2nc3cc(C(F)(F)F)ccc3[nH]2)CC1`
Solution: 6

Problem: // lookup residual activity for `Cc1ccc2c(c1)C(=O)[C@@]1(O)CCN(c3ccccc3)C1=N2`
Solution: 92

Problem: // lookup residual activity for `C[C@H]1CCCC(=O)CCC/C=C/c2cc(O)cc(O)c2C(=O)O1`
Solution: 61

Problem: // lookup residual activity for `O=C(Nc1ccccc1-c1cn2c(CN3CCNCC3)csc2n1)c1cnc2ccccc2n1`
Solution: 61

Problem: // lookup residual activity for `Cc1ccc(Sc2cnc(Nc3cccc(Br)n3)s2)cc1C(=O)N1CCN(C(=O)CN)CC1`
Solution: 11

Problem: // lookup residual activity for `Cc1nc(-c2ccc(OCC(C)C)c(C#N)c2)sc1C(=O)O`
Solution: 99

Problem: // lookup residual activity for `CN1C(=O)[C@@H](Cc2c[nH]c3ccccc23)NC1=S`
Solution: 99

Problem: // lookup residual activity for Nc1cccc2c1CN(C1CCC(=O)NC1=O)C2=O (stereo not given)
Solution: 93

Problem: // lookup residual activity for `O=C(O)c1cc(N=Nc2ccc(S(=O)(=O)Nc3ccccn3)cc2)ccc1O`
Solution: 90
